Catalogue of compounds with associated log10(intrinsic clearance, rat liver microsomes)
Form field - Quantity: intrinsic clearance, rat liver microsomes; Unit: mL/min/kg; Scale: log10

Cc1cc(C(=O)N(C)CC2CCN(CCO)CC2)cc(C)n1 ... 1.47
O=C(Nc1nccs1)c1c2c(nc3ccccc13)CCC2 ... 2.68
CCc1noc(C2CCC(NCC3CCC(F)(F)CC3)CC2)n1 (configuration not stated) ... 2.38
N#Cc1c(F)cccc1Oc1cccnc1 ... 1.48
Cc1ccc(-c2cc(NC(=O)CN3CCOCC3)on2)cc1 ... 1.85
CN1CCC[C@H]1C(=O)N[C@@H](CO)Cc1ccccc1 ... 2.50
CC(=O)NC1(C(=O)N2CCCN(c3cccnn3)CC2)CCCCC1 ... 1.32
Nc1cnc(Cc2ccc(F)cc2)nc1 ... 1.19
O=C(NC1CC1)c1cccnc1Oc1ccccc1 ... 1.07
COc1ccc(CCC(=O)N2CCN(C(=O)c3cc4n(n3)CCCC4)CC2)cc1 ... 2.94

In the following, a different compound is considered.
Exam item: Return log10(intrinsic clearance, rat liver microsomes) for the following compound: "CC(C)(C)n1cc(CNc2cccnc2)cn1"
Marked response: 1.62

###

QUANTITY: intrinsic clearance, human liver microsomes (mL/min/kg)
The figure you give is taken to be in mL/min/kg; do not add the unit.

Example entries begin here.
CN(CCSc1ccc2nnnn2n1)Cc1ccccc1 ... 64.7
COCc1ccc(SCC(=O)NC2CCCC2)cc1 ... 33.3
Cc1cccnc1NC(=O)c1csc(-c2ccccc2)n1 ... 54
Cn1ccnc1CN(C(=O)c1[nH]c2ccccc2c1Cl)C1CC1 ... 90.5

Exam item: Return intrinsic clearance, human liver microsomes for the following compound: CC(c1ccccc1)N1CC(C(=O)N2CCC(n3c(=O)[nH]c4ccccc43)CC2)CC1=O (configuration not stated)
Marked response: 32.1

Exam item: Return intrinsic clearance, human liver microsomes for the following compound: "CCc1nc2cc(-c3c(OC)cccc3OC)ccc2o1"
Marked response: 49.6

Exam item: Return intrinsic clearance, human liver microsomes for the following compound: "COc1ccc2c(c1)C=C(CN1CCC(c3cc(-c4ccc(N)nc4)cc(C)n3)CC1)CO2"
Marked response: 43.4

###

Catalogue of molecules with associated intrinsic clearance, human liver microsomes

Example entries begin here.
Cc1nn(C)c(C)c1CNc1ccc(N2CCN(C)CC2)nc1 ... ≤ 4.74 mL/min/kg
O=C(O)c1ccc(CCC(=O)N2CCc3c(F)cc(F)cc3C2)cc1 ... ≤ 4.74 mL/min/kg
C[C@H](Cc1cc2c(c(C(N)=O)c1)N(CCCO)CC2)NCCOc1ccccc1OCC(F)(F)F ... 59 mL/min/kg

Exam item: Return intrinsic clearance, human liver microsomes for the following molecule: "O=C(CN1CCCc2ccc(F)cc21)N1CCNC1=O"
Marked response: ≤ 4.74 mL/min/kg

###

QUANTITY: MDR1-MDCK efflux ratio
// keep it numeric: no unit symbol after the value

Example entries begin here.
N=C(N)N/N=C/c1c(Cl)cccc1Cl ... 0.543
CC(C)NC(=O)COc1cccc(-c2nc(Nc3ccc4[nH]ncc4c3)c3ccccc3n2)c1 ... 20
O=C(NCC1CC1)c1ccc(-n2ccnc2)nc1 ... 1.08
Cc1noc(C)c1C(=O)N1CCCN(c2ccc(F)cc2)CC1 ... 1.8
O=C(NCC1CC1)c1cncn1-c1ccc(F)cc1 ... 1.26

Exam item: Return MDR1-MDCK efflux ratio for the following molecule: "CC(C)(C=C(C#N)C(=O)N1CCC[C@@H](n2nc(-c3ccc(Oc4ccccc4)cc3F)c3c(N)ncnc32)C1)N1CCN(C2COC2)CC1"
Marked response: 35.9

Exam item: Return MDR1-MDCK efflux ratio for the following molecule: "CON(C)C(=O)CCc1c(C)nn(C)c1C"
Marked response: 1.33

###

Catalogue of compounds with associated aqueous solubility
# SETUP_CONDITIONS: pH 6.8
The figure you give is taken to be in µg/mL; do not add the unit.

Example entries begin here.
O=C(Cc1ccc(Cl)c(Cl)c1)N1CC(n2ccnn2)C1 ... 31
Clc1ccc(NCc2ccoc2)nn1 ... 21.5
COc1ccccc1-c1nc(-c2ccc(NC(C)=O)cc2)c(C)s1 ... 0.73
CN(C)C(=O)Cc1nc(-c2cc3cc(Cl)ccc3o2)cs1 ... 2.41
c1cnn(-c2ccc(-c3ccc(NC4CC4)nn3)cc2)c1 ... 0.78

Exam item: Return aqueous solubility for the following compound: "N#CCCN(C(=O)c1sccc1C#N)C12CC3CC(CC(C3)C1)C2"
Marked response: 7.8

Exam item: Return aqueous solubility for the following compound: "Cc1[nH]c2ccc(Cl)cc2c1CC(=O)N1CCC(Cc2ncncc2C(N)=O)CC1"
Marked response: 46.5

###

Classification by intrinsic clearance, human liver microsomes | ranges: L = under 30 mL/min/kg, M = from 30 mL/min/kg up to 90 mL/min/kg, H = 90 mL/min/kg and over

Some solved entries appear below for comparison.
Cc1ccc(C#N)c(NC(=O)CCc2ccccc2)n1 ... L
COc1ccc(NC(=O)CN2CCC(c3cc(-c4cnc(N)nc4)cc(C)n3)CC2)cc1 ... L
COCCc1nc(CCCn2cccn2)n(C2Cc3ccccc3C2)n1 ... L
COCCc1nc(-c2cnc(C3CC3)nc2)n(Cc2ccc(F)cc2)n1 ... L
C=CCn1cnc2c(Cl)cc(-c3ccc(C(=O)NC4CC4)o3)cc21 ... L

Exam item: For the record "CC(C)N(C)S(=O)(=O)NCCCc1nc2cc(Cl)ccc2[nH]1" , report the class its intrinsic clearance, human liver microsomes corresponds to.
Marked response: H

###

Classification by intrinsic clearance, rat liver microsomes | ranges: low group (below 100 mL/min/kg), middle group (100 mL/min/kg to below 400 mL/min/kg), high group (400 mL/min/kg or more)

Some solved entries appear below for comparison.
CC(=O)N1CCc2cc(Nc3nccc(C(F)(F)F)n3)ccc21 ... middle group
COCCNc1ncnc2ccsc12 ... low group

Exam item: For the record "Nc1ncnc2ccc(-c3ccnc(F)c3)nc12" , report the class its intrinsic clearance, rat liver microsomes corresponds to.
Marked response: low group

Exam item: For the record "CN1CCC(O)(CNS(=O)(=O)CC2CCCCC2)CC1" , report the class its intrinsic clearance, rat liver microsomes corresponds to.
Marked response: middle group

Exam item: For the record "O=C(NCc1ccc(F)cc1)C1CCN(C(=O)/C=C/c2ccc(F)cc2)CC1" , report the class its intrinsic clearance, rat liver microsomes corresponds to.
Marked response: middle group

Exam item: For the record "CN(Cc1nc2ccccc2n1C)c1ccnc(-c2ccccc2)n1" , report the class its intrinsic clearance, rat liver microsomes corresponds to.
Marked response: high group

Exam item: For the record "Cc1nn(-c2ccc(F)cc2)c(Cl)c1C(=O)N1CCC(S(=O)(=O)C(C)C)CC1" , report the class its intrinsic clearance, rat liver microsomes corresponds to.
Marked response: low group

Exam item: For the record CC1(CNC(=O)c2cncc(C3CCNCC3)n2)CCCO1 (configuration not stated) , report the class its intrinsic clearance, rat liver microsomes corresponds to.
Marked response: low group

###

QUANTITY: intrinsic clearance, rat liver microsomes (mL/min/kg)
The figure you give is taken to be in mL/min/kg; do not add the unit.

Example entries begin here.
CC(C)c1nnc(CN2CCN(c3ccccc3Cl)CC2)o1 ... 869
COc1ccc(Cl)cc1NC(=O)CN1CCCN(c2ccc(C(F)(F)F)cn2)CC1 ... 1060
O=C(O)CNc1nc(-c2ccccc2)nc2ccccc12 ... 29.4
CNCc1cc(NC)nc(C2CCCN2C(=O)C(C)(C)c2ccc(C)cc2)n1 (stereo not drawn) ... 153
CC(C)(C)c1[nH]cnc1/C=c1\[nH]c(=O)/c(=C/c2ccccc2)[nH]c1=O ... 146

Exam item: Return intrinsic clearance, rat liver microsomes for the following compound: "CC(C)C(=O)N1CC(Cc2nccc3ccn(C)c23)C1"
Marked response: 51.9

Exam item: Return intrinsic clearance, rat liver microsomes for the following compound: Cc1cc(Nc2ccc(F)cn2)cc(C2CCN(C(=O)CCn3ncc4ccccc43)C2)n1 (stereo not drawn)
Marked response: 2300

Exam item: Return intrinsic clearance, rat liver microsomes for the following compound: "c1ccc(-c2cc3c(N4CCC(c5ncc[nH]5)CC4)ncnc3s2)cc1"
Marked response: 1550

Exam item: Return intrinsic clearance, rat liver microsomes for the following compound: "CCN(Cc1ccccc1)C(=O)c1cccnc1N"
Marked response: 174

Exam item: Return intrinsic clearance, rat liver microsomes for the following compound: "Cc1nc(C#N)c(C#N)n1Cc1csc(-c2cccs2)n1"
Marked response: 1710

Exam item: Return intrinsic clearance, rat liver microsomes for the following compound: "N#Cc1ccccc1OCc1csc(-c2ncccn2)n1"
Marked response: 119

Exam item: Return intrinsic clearance, rat liver microsomes for the following compound: "COc1cc(CN2CCC(C(=O)N3CCOCC3)CC2)ccc1C"
Marked response: 228

Exam item: Return intrinsic clearance, rat liver microsomes for the following compound: "CCCc1ccc(C(=O)CSc2nncs2)cc1"
Marked response: 1260

Exam item: Return intrinsic clearance, rat liver microsomes for the following compound: "O=C(Nc1ccncc1)[C@H]1CCCN(S(=O)(=O)c2ccc(Cl)cc2)C1"
Marked response: 721

Exam item: Return intrinsic clearance, rat liver microsomes for the following compound: "CN(Cc1ccc2c(c1)OCO2)Cc1ccccc1C#N"
Marked response: 4100

Exam item: Return intrinsic clearance, rat liver microsomes for the following compound: "O=C(Nc1ccccc1-c1cn2c(CN3CCNCC3)csc2n1)c1cnc2ccccc2n1"
Marked response: 19.2

Exam item: Return intrinsic clearance, rat liver microsomes for the following compound: "Cc1ccc(S(=O)(=O)N2CCCc3ccc(NS(=O)(=O)c4cc(F)ccc4F)cc32)cc1"
Marked response: 2260

Exam item: Return intrinsic clearance, rat liver microsomes for the following compound: "CCOc1ccc(-c2csc(N)n2)cc1"
Marked response: 338

Exam item: Return intrinsic clearance, rat liver microsomes for the following compound: "O=C1Nc2ccccc2O[C@H]2C[C@@H]1N(CC1CC1)C2"
Marked response: 377

Exam item: Return intrinsic clearance, rat liver microsomes for the following compound: "COc1cc(CN2CCC(c3ccnc(C)n3)CC2)ccc1F"
Marked response: 73.6

This collection of values is drawn from the Biogen ADME set (Fang et al. 2023).
